Cited source for all entries: paper PMC6829536

# study_system: L98K CaFADS (Corynebacterium ammoniagenes, UniProt Q59263, L98K)
# Sequence (Q59263 whole entry L98K): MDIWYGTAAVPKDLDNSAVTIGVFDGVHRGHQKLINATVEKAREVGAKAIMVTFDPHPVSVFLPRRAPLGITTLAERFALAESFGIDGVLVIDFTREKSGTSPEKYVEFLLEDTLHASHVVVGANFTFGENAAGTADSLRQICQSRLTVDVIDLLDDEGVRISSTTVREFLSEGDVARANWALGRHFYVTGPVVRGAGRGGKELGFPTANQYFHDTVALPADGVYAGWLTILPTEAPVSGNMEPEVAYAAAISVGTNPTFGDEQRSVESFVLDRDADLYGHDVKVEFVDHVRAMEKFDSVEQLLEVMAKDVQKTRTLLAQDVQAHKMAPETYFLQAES
# protocol: biochemical
metric_name: Ki (µM)
Answers are plain numbers, in µM.

Entry `Cc1cc2nc3c(=O)[nH]c(=O)nc-3n(C[C@H](O)[C@H](O)[C@H](O)CO)c2cc1C` ; Ki = 41

---

# study_system: L98W CaFADS (Corynebacterium ammoniagenes, UniProt Q59263, L98W)
# Sequence (Q59263 whole entry L98W): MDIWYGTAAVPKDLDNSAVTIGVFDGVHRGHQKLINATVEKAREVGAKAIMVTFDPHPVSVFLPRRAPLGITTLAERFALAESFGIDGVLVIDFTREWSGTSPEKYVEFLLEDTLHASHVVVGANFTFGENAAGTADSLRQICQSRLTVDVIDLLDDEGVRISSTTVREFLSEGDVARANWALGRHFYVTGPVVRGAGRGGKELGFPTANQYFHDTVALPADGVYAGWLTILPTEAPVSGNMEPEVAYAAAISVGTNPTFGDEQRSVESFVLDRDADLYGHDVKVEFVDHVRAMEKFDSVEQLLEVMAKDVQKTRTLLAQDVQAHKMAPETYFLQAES
# protocol: biochemical
metric_name: Ki (µM)
Give bare numbers, in µM.

Entry Cc1cc2nc3c(=O)[nH]c(=O)nc-3n(C[C@H](O)[C@H](O)[C@H](O)CO)c2cc1C [RF, Riboflavin] ; Ki = 46
